Where these numbers come from: a melting point compilation (Tetko et al.)

Overview of reported melting point across a group of molecules:

{"columns": ["molecule", "melting point"],
 "data": [
  ["O=S1(=O)C=CC(Br)C1 (stereo not given)", "54 to 55 °C"],
  ["O=C(O)c1c(O)cc(F)cc1F", "182 to 184 °C"],
  ["CCOc1cc(C(=O)O)ccc1OCc1cccnc1", "185 to 187 °C"],
  ["CCOC(=O)c1cc(C2CC2)[nH]n1", "98 to 100 °C"],
  ["Cc1ccc([N+](=O)[O-])cc1S(=O)(=O)N1CCC(C(=O)O)CC1", "107 to 109 °C"]
]}

----------
observable: melting point

{"columns": ["molecule", "meas_value"],
 "data": [
  ["O=C(CSc1ccccc1C(=O)O)c1ccc(-c2ccccc2)cc1", "189 to 191 °C"],
  ["C=CC(=O)Nc1ccc(Br)cc1", "197 to 199 °C"],
  ["COc1ccc(N)cc1OCCO", "99 to 101 °C"],
  ["O=S(=O)(c1ccc(C(F)(F)F)cc1)N1CCNCC1", "163 to 169 °C"],
  ["CC(C)(C)c1ccc(Cn2nccc2N)cc1", "< 17 °C"],
  ["COc1ccc(C(CC(=O)O)NC(C)=O)cc1 (stereo not given)", "186 to 188 °C"],
  ["Nc1c(C(=O)O)ccnc1Cl", "249 to 251 °C"],
  ["CC(Cl)C(=O)Nc1ccccc1C(=O)NCc1ccco1 (stereo not given)", "102 to 104 °C"],
  ["O=c1[nH]cnc2ccc([N+](=O)[O-])cc12", "284 to 286 °C"],
  ["Cc1sc(NC(=O)C2CC2)c(C(=O)O)c1C", "148 to 152 °C"],
  ["N#CCc1nc(C23CC4CC(CC(C4)C2)C3)cs1", "57 to 59 °C"],
  ["Cc1cccn2cc(CC(N)=S)nc12", "153 to 155 °C"],
  ["COCCNC(N)=O", "72 to 74 °C"],
  ["Cc1cc(C)c([N+](=O)[O-])c(Cl)n1", "59 to 61 °C"],
  ["O=C(O)c1ccc(N2C(=O)C=CC2=O)cc1", "229 to 231 °C"],
  ["CSc1ccc(C(C)=O)cc1F", "71 to 73 °C"],
  ["Nc1ccn(CC(F)(F)F)n1", "39 to 41 °C"],
  ["CS(=O)(=O)c1ccc(OCCC(=O)O)cc1", "108 to 110 °C"],
  ["N#Cc1ccc(-n2nccc2N)cc1", "114 to 116 °C"],
  ["CC(C)C(=O)Nc1ccc(O)cc1", "158 to 160 °C"]
]}
